Sourced from PubChem BioAssay AID2060606

Test system: 922993-354-T-J3-PDC complex spheroids, viability, % test/control
Assay: Anticancer human tumor 922993-354-T-J3-PDC patient-derived endometrial carcinoma cell line growth inhibition [CLK]
Details: second compound 1 µM; first compound 0.01 µM; stronger effect = lower value
Text: A high-throughput screen of multi-cell type tumor spheroids was designed to identify active combinations of […] and targeted small molecules. Complex spheroids include a stromal component modeled by human endothelial cells (HUVEC) and fibroblasts modeled by human mesenchymal stem cells (MSCs). […] Compounds. […] If the clinical Cmax for an agent had not been determined, the highest concentration tested was 10 microM. […]
Lab note - cut at 30% for viability, T/C: class 1 if strictly below, class 0 if not.

Qu. Criterion: viability, T/C strictly below 30%. Is it met by CCc1c2c(nc3ccc(O)cc13)-c1cc3c(c(=O)n1C2)COC(=O)[C@]3(O)CC + CNC(=O)c1ccc(Nc2nc(OC3CCCC3)c3c(-c4ccc5nc(C)oc5c4)c[nH]c3n2)c(OC)c1 ?
Ans. class 0

Qu. Criterion: viability, T/C strictly below 30%. Is it met by Cn1ncnc1[C@H]1c2n[nH]c(=O)c3cc(F)cc(c23)N[C@@H]1c1ccc(F)cc1 + CN1CCN(c2cc(C(=O)Nc3cc4cc(-c5cnn(C)c5)ccc4cn3)ccn2)CC1 ?
Ans. class 1

Qu. Criterion: viability, T/C strictly below 30%. Is it met by COc1c(OCCCN2CCOCC2)ccc2c3n(c(=NC(=O)c4cnc(N)nc4)nc12)CCN3 + CNC(=O)c1ccc(Nc2nc(OC3CCCC3)c3c(-c4ccc5nc(C)oc5c4)c[nH]c3n2)c(OC)c1 ?
Ans. class 0

Qu. Criterion: viability, T/C strictly below 30%. Is it met by COc1c(OCCCN2CCOCC2)ccc2c3n(c(=NC(=O)c4cnc(N)nc4)nc12)CCN3 + CN1CCN(c2cc(C(=O)Nc3cc4cc(-c5cnn(C)c5)ccc4cn3)ccn2)CC1 ?
Ans. class 1

Qu. Criterion: viability, T/C strictly below 30%. Is it met by Cn1ncnc1[C@H]1c2n[nH]c(=O)c3cc(F)cc(c23)N[C@@H]1c1ccc(F)cc1 + CNC(=O)c1ccc(Nc2nc(OC3CCCC3)c3c(-c4ccc5nc(C)oc5c4)c[nH]c3n2)c(OC)c1 ?
Ans. class 0

---

Test system: 922993-354-T-J3-PDC complex spheroids, viability, % test/control
Test: Anticancer human tumor 922993-354-T-J3-PDC cell line growth inhibition [CLK];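 also: spheroids exposed to the agents for 7 days before readout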
Conditions: curve of first compound; second compound 0.316 µM
Excerpt: A high-throughput screen of multi-cell type tumor spheroids was designed to identify active combinations of […] and targeted small molecules. Complex spheroids include a stromal component modeled by human endothelial cells (HUVEC) and fibroblasts modeled by human mesenchymal stem cells (MSCs). […] Compounds. […] If the clinical Cmax for an agent had not been determined, the highest concentration tested was 10 microM. […]
pIC50: −log10 of the molar value.
Give measured pIC50 for each item. Keep answers brief.

Qu. Quick one: pIC50 for O=c1[nH]cc(F)c(=O)[nH]1 + CNC(=O)c1ccc(Nc2nc(OC3CCCC3)c3c(-c4ccc5nc(C)oc5c4)c[nH]c3n2)c(OC)c1 ?
Ans. 5.39

Qu. Quick one: pIC50 for CC(=O)O[C@H]1C(=O)[C@@]2(C)[C@H]([C@H](OC(=O)c3ccccc3)[C@]3(O)C[C@H](OC(=O)[C@H](O)[C@@H](NC(=O)c4ccccc4)c4ccccc4)C(C)=C1C3(C)C)[C@]1(OC(C)=O)CO[C@@H]1C[C@@H]2O + CNC(=O)c1ccc(Nc2nc(OC3CCCC3)c3c(-c4ccc5nc(C)oc5c4)c[nH]c3n2)c(OC)c1 ?
Ans. < 5.00

Qu. Quick one: pIC50 for O=C(c1cc(Cc2n[nH]c(=O)c3ccccc23)ccc1F)N1CCN(C(=O)C2CC2)CC1 + CNC(=O)c1ccc(Nc2nc(OC3CCCC3)c3c(-c4ccc5nc(C)oc5c4)c[nH]c3n2)c(OC)c1 ?
Ans. < 5.00

Qu. Quick one: pIC50 for CC(CO)NC(=O)c1cc(-c2ccc(Cl)cc2)nn(-c2cnn(C)c2)c1=O (stereo not given) + CNC(=O)c1ccc(Nc2nc(OC3CCCC3)c3c(-c4ccc5nc(C)oc5c4)c[nH]c3n2)c(OC)c1 ?
Ans. < 5.00

Qu. Quick one: pIC50 for CC1COCCN1c1cc(C2(S(C)(=N)=O)CC2)nc(-c2ccnc3[nH]ccc23)n1 (stereo not given) + CN1CCN(c2cc(C(=O)Nc3cc4cc(-c5cnn(C)c5)ccc4cn3)ccn2)CC1 ?
Ans. > 7.50

---

Tested on: 922993-354-T-J3-PDC complex spheroids, viability, % test/control
Test: Anticancer human tumor 922993-354-T-J3-PDC cell line growth inhibition [CLK]; active = viability on the fitted dose curve at most 10% of control; inactive = the rest;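 also: spheroids exposed to the agents for 7 days before readout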
Conditions: second compound 3.16 µM; first compound 0.316 µM
Text: A high-throughput screen of multi-cell type tumor spheroids was designed to identify active combinations of […] and targeted small molecules. Complex spheroids include a stromal component modeled by human endothelial cells (HUVEC) and fibroblasts modeled by human mesenchymal stem cells (MSCs). […] Compounds. […] If the clinical Cmax for an agent had not been determined, the highest concentration tested was 10 microM. […]
Select the correct class. Options are true (active), false (inactive) and nothing else.

Qu. Tell me the assay call for CC(Nc1ccc2c(c1)OCCn1cc(N3C(=O)OCC3C(F)F)nc1-2)C(N)=O (stereo not given) + CNC(=O)c1ccc(Nc2nc(OC3CCCC3)c3c(-c4ccc5nc(C)oc5c4)c[nH]c3n2)c(OC)c1 please.
Ans. false

Qu. Tell me the assay call for COC1C=CCC(C)C(C)S(=O)(=O)NC(=O)c2ccc3c(c2)N(CC2CCC21)CC1(CCCc2cc(Cl)ccc21)CO3 (stereo not given) + CNC(=O)c1ccc(Nc2nc(OC3CCCC3)c3c(-c4ccc5nc(C)oc5c4)c[nH]c3n2)c(OC)c1 please.
Ans. false

Qu. Tell me the assay call for CC(=O)O[C@H]1C(=O)[C@@]2(C)[C@H]([C@H](OC(=O)c3ccccc3)[C@]3(O)C[C@H](OC(=O)[C@H](O)[C@@H](NC(=O)c4ccccc4)c4ccccc4)C(C)=C1C3(C)C)[C@]1(OC(C)=O)CO[C@@H]1C[C@@H]2O + CNC(=O)c1ccc(Nc2nc(OC3CCCC3)c3c(-c4ccc5nc(C)oc5c4)c[nH]c3n2)c(OC)c1 please.
Ans. false

Qu. Tell me the assay call for CC(CO)NC(=O)c1cc(-c2ccc(Cl)cc2)nn(-c2cnn(C)c2)c1=O (stereo not given) + CN1CCN(c2cc(C(=O)Nc3cc4cc(-c5cnn(C)c5)ccc4cn3)ccn2)CC1 please.
Ans. true

Qu. Tell me the assay call for O=C(c1cc(Cc2n[nH]c(=O)c3ccccc23)ccc1F)N1CCN(C(=O)C2CC2)CC1 + CN1CCN(c2cc(C(=O)Nc3cc4cc(-c5cnn(C)c5)ccc4cn3)ccn2)CC1 please.
Ans. true

Qu. Tell me the assay call for CC(Nc1ccc2c(c1)OCCn1cc(N3C(=O)OCC3C(F)F)nc1-2)C(N)=O (stereo not given) + CN1CCN(c2cc(C(=O)Nc3cc4cc(-c5cnn(C)c5)ccc4cn3)ccn2)CC1 please.
Ans. true

Qu. Tell me the assay call for CC(CO)NC(=O)c1cc(-c2ccc(Cl)cc2)nn(-c2cnn(C)c2)c1=O (stereo not given) + CNC(=O)c1ccc(Nc2nc(OC3CCCC3)c3c(-c4ccc5nc(C)oc5c4)c[nH]c3n2)c(OC)c1 please.
Ans. false

Qu. Tell me the assay call for COc1c(OCCCN2CCOCC2)ccc2c3n(c(=NC(=O)c4cnc(N)nc4)nc12)CCN3 + CNC(=O)c1ccc(Nc2nc(OC3CCCC3)c3c(-c4ccc5nc(C)oc5c4)c[nH]c3n2)c(OC)c1 please.
Ans. true

Qu. Tell me the assay call for Nc1ccn(C2OC(CO)C(O)C2(F)F)c(=O)n1 (stereo not given) + CN1CCN(c2cc(C(=O)Nc3cc4cc(-c5cnn(C)c5)ccc4cn3)ccn2)CC1 please.
Ans. true

Qu. Tell me the assay call for C=CC(=O)N1CCN(c2nc(=O)n(-c3c(C)ccnc3C(C)C)c3nc(-c4c(O)cccc4F)c(F)cc23)C(C)C1 (stereo not given) + CN1CCN(c2cc(C(=O)Nc3cc4cc(-c5cnn(C)c5)ccc4cn3)ccn2)CC1 please.
Ans. true

Qu. Tell me the assay call for CCc1c2c(nc3ccc(O)cc13)-c1cc3c(c(=O)n1C2)COC(=O)[C@]3(O)CC + CN1CCN(c2cc(C(=O)Nc3cc4cc(-c5cnn(C)c5)ccc4cn3)ccn2)CC1 please.
Ans. true

Qu. Tell me the assay call for CC1(C)CCC(CN2CCN(c3ccc(C(=O)NS(=O)(=O)c4ccc(NCC5CCOCC5)c([N+](=O)[O-])c4)c(Oc4cnc5[nH]ccc5c4)c3)CC2)=C(c2ccc(Cl)cc2)C1 + CNC(=O)c1ccc(Nc2nc(OC3CCCC3)c3c(-c4ccc5nc(C)oc5c4)c[nH]c3n2)c(OC)c1 please.
Ans. false

Qu. Tell me the assay call for C=C(F)C(=O)N1CCN(c2nc(OCC3CCCN3C)nc3c2CCN(c2cccc4cccc(Cl)c24)C3)CC1CC#N (stereo not given) + CN1CCN(c2cc(C(=O)Nc3cc4cc(-c5cnn(C)c5)ccc4cn3)ccn2)CC1 please.
Ans. true

Qu. Tell me the assay call for COc1cccc2c1C(=O)c1c(O)c3c(c(O)c1C2=O)CC(O)(C(=O)CO)CC3OC1CC(N)C(O)C(C)O1 (stereo not given) + CNC(=O)c1ccc(Nc2nc(OC3CCCC3)c3c(-c4ccc5nc(C)oc5c4)c[nH]c3n2)c(OC)c1 please.
Ans. false

Qu. Tell me the assay call for CCc1c2c(nc3ccc(O)cc13)-c1cc3c(c(=O)n1C2)COC(=O)[C@]3(O)CC + CNC(=O)c1ccc(Nc2nc(OC3CCCC3)c3c(-c4ccc5nc(C)oc5c4)c[nH]c3n2)c(OC)c1 please.
Ans. false

Qu. Tell me the assay call for Nc1ccn(C2OC(CO)C(O)C2(F)F)c(=O)n1 (stereo not given) + CNC(=O)c1ccc(Nc2nc(OC3CCCC3)c3c(-c4ccc5nc(C)oc5c4)c[nH]c3n2)c(OC)c1 please.
Ans. false

Qu. Tell me the assay call for C#Cc1c(F)ccc2cc(O)cc(-c3ncc4c(N5CC6CCC(C5)N6)nc(OCC56CCCN5CC(F)C6)nc4c3F)c12 (stereo not given) + CN1CCN(c2cc(C(=O)Nc3cc4cc(-c5cnn(C)c5)ccc4cn3)ccn2)CC1 please.
Ans. true

Qu. Tell me the assay call for Nc1ccccc1NC(=O)c1ccc(CNC(=O)OCc2cccnc2)cc1 + CNC(=O)c1ccc(Nc2nc(OC3CCCC3)c3c(-c4ccc5nc(C)oc5c4)c[nH]c3n2)c(OC)c1 please.
Ans. false

Qu. Tell me the assay call for C#Cc1c(F)ccc2cc(O)cc(-c3ncc4c(N5CC6CCC(C5)N6)nc(OCC56CCCN5CC(F)C6)nc4c3F)c12 (stereo not given) + CNC(=O)c1ccc(Nc2nc(OC3CCCC3)c3c(-c4ccc5nc(C)oc5c4)c[nH]c3n2)c(OC)c1 please.
Ans. false

Qu. Tell me the assay call for Nc1ccccc1NC(=O)c1ccc(CNC(=O)OCc2cccnc2)cc1 + CN1CCN(c2cc(C(=O)Nc3cc4cc(-c5cnn(C)c5)ccc4cn3)ccn2)CC1 please.
Ans. true
